Recorded values, source patent US5811533.

molecular target: VEGF165 (recombinant human vascular endothelial growth factor, 165 aa form) (Homo sapiens, UniProt P15692-4 P15692-4:27-191); experiment: filter; PBS, 0.01% HSA, 37 C; Kd1, X1 0.53, Kd2 31 nM; settings: tags: gift from N. Ferrara, Genentech; chain copies: 2 (dimer, stated); label: 32P; asymmetrical internal loop
Sequence (P15692 other isoform, or with tags, fused parts or gaps): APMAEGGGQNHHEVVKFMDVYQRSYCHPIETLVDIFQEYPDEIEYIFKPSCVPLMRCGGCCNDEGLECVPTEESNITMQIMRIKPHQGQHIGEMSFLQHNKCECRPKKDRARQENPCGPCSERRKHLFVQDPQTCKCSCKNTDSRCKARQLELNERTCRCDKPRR
measurement name: Kd (nM)

| binder | measurement name | quantitative readout |
| --- | --- | --- |
| GGCUCAAUAGUUGGAGGCCUGUCCUCGCCGUAGAGC (ssRNA) [ligand 84t] | Kd | 1.8 |
